The entries below are paired with their reported residual activity.
Target: ULK1 (human)
Assay: radiometric filter-binding kinase assay, Kinase HotSpot
Conditions: compound 0.5 µM; ATP 10 µM
MEASURE: residual activity (%)

* CCN(CC)CCNC(=O)c1c(C)[nH]c(/C=C2\C(=O)Nc3ccc(Cl)cc32)c1C | 13.6
* O=C1NC(=O)/C(=C/c2ccc3c(c2)OC(F)(F)O3)S1 | 100
* CC(=O)c1ccc(N2CCOCC2)cc1O | 94.8
* O=C(Nc1cccc(Nc2nccc(Nc3cccc(C(F)(F)F)c3)n2)c1)C1CC1 | 105
* CCC(=O)Nc1ccc2ncnc(Nc3cccc(Br)c3)c2c1 | 103
* Nc1ccc2ncnc(NCCc3ccc(Oc4ccccc4)cc3)c2c1 | 105
* CC(C)N(CCC(=O)c1ccc2ccccc2c1)Cc1ccccc1 | 104
* Cc1ccc(NC2=CC(=O)c3sc(C)nc3C2=O)cc1 | 114
* O=C1Nc2ccc(Cl)cc2/C1=C/c1cc(Cl)c(O)c(Cl)c1 | 95
* CC[n+]1c(/C=C/N(C)c2ccccc2)n(-c2ccccc2)c2ccc(-c3nc4ccccc4s3)cc21 | 90.9
* Oc1cccc(-c2nc(N3CCOCC3)c3oc4ncccc4c3n2)c1 | 113
* O=S(=O)(c1cccc2cnccc12)N1CCCNCC1 | 103
* COc1ccc2c(c[n+](C)c3c4cc5c(cc4ccc23)OCO5)c1OC | 109
* Nc1ncnc2[nH]nc(Nc3ccc(F)cc3)c12 | 95.6
* Nc1cccc(-c2cc3c(Oc4cccc(O)c4)ncnc3[nH]2)c1 | 143
* CNc1cc2c(Nc3cccc(Br)c3)ncnc2cn1 | 98.8
* Cc1ccc(Nc2nccc(N(C)c3ccc4c(C)n(C)nc4c3)n2)cc1S(N)(=O)=O | 97.3
* O=C1NC(=O)C(c2cn(CCCn3ccnc3)c3ccccc23)=C1Nc1ccccc1 | 90.1
* Cc1ccc(S(=O)(=O)/C=C/C#N)cc1 | 102
* c1ccc(-c2n[nH]cc2-c2ccnc3ccccc23)nc1 | 85.9
* Nc1ncnc2c1c(-c1ccc(Oc3ccccc3)cc1)cn2C1CCCC1 | 106
* N#C/C(=C(/N)Sc1ccc(N)cc1)c1ccccc1C(F)(F)F | 99.6
* Cc1[nH]c(/C=C2\C(=O)Nc3ccc(S(=O)(=O)N(C)c4cccc(Cl)c4)cc32)c(C)c1C(=O)N1CCN(C)CC1 | 5.17
* CNC(=O)c1cc(Oc2ccc(NC(=O)Nc3ccc(Cl)c(C(F)(F)F)c3)cc2)ccn1 | 94.3
* CCN(CC)C(=O)c1ccc(Nc2nc(OCC3CCCCC3)c3nc[nH]c3n2)cc1 | 77.7
* COc1ccc(COc2ccc(Cc3cnc(N)nc3N)cc2OC)cc1 | 99.7
* O=C1NC(=O)c2c1c1c3ccccc3n3c1c1c2c2ccccc2n1C1CCC3O1 | 73.1
* CCCC(=O)Oc1ccc2[nH]c(C(=O)c3cc4ccccc4[nH]3)cc2c1 | 103
* CC#CC(=O)Nc1cc2c(Nc3ccc(F)c(Cl)c3)ncnc2cn1 | 96.6
* CCN(CC)CCNC(=O)c1c(C)[nH]c(/C=C2\C(=O)Nc3ccc(F)cc32)c1C | 16.3
* O=c1cc(N2CCOCC2)oc2c1ccc1ccccc12 | 96.1
* N#CC(C#N)=C(N)/C(C#N)=C/c1ccc(O)cc1 | 89.3
* CO[C@H]1CC2CC[C@@H](C)[C@@](O)(O2)C(=O)C(=O)N2CCCC[C@H]2C(=O)OC([C@H](C)C[C@@H]2CC[C@@H](O)[C@H](OC)C2)CC(=O)[C@H](C)/C=C(\C)[C@@H](O)[C@@H](OC)C(=O)[C@H](C)C[C@H](C)/C=C/C=C/C=C/1C (stereo partly specified) | 87.9
* c1ccc(-c2n[nH]c3c2oc2ccccc23)cc1 | 124
* CCOC(=O)c1c(C)[nH]c(/C=C2\C(=O)Nc3ccccc32)c1C | 80.1
* COc1cc2ncnc(Nc3cccc(Cl)c3)c2cc1OC | 84.7
